Molecular target: SNX1-SAH^3A:SNX5-SAH^3A heterodimer (human, UniProt Q13596 1-522; Q9Y5X3 1-404)
Sequence (Q13596 whole entry, chain 1 of 2): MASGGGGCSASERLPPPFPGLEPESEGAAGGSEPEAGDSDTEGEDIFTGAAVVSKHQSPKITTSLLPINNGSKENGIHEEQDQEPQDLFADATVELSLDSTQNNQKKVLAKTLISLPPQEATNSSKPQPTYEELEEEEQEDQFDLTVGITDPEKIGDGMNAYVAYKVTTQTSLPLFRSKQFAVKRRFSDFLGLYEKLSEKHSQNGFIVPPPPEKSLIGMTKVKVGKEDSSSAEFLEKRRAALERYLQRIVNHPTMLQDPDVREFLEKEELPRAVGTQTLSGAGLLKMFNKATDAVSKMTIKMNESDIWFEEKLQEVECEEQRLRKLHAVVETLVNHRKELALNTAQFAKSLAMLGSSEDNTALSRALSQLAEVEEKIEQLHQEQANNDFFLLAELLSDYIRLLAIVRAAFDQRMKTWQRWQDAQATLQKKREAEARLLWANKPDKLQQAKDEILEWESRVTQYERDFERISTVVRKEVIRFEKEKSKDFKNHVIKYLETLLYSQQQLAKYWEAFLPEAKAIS
Sequence (Q9Y5X3 whole entry, chain 2 of 2): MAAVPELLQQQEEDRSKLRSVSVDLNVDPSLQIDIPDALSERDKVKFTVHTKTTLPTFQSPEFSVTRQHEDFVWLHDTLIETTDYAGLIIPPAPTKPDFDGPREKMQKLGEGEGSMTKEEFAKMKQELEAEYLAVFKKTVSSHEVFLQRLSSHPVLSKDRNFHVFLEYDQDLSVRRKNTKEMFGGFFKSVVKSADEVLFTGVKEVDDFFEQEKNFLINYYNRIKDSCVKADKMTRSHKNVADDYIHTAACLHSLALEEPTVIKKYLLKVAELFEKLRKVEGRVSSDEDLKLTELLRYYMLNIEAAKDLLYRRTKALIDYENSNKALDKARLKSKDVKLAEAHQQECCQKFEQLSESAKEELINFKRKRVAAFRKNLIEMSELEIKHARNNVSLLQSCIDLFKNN
Assay: ITC; representative single experiment
pKd: −log10 of the molar value.
property: pKd

>>> print(df.to_string())
                          binder  recorded_value
0  SNVSYKYSKVNKEEETDENETEWLMEEIQ            5.33
